Test system: UACC-62 melanoma
ASSAY EXPLANATION: NCI tumour cell line growth inhibition, 48 h
ASSAY ENDPOINT: TGI

Study these solved cases before continuing.
# COMPOUND, ASSAY ENDPOINT, EXPERIMENTAL VALUE
rows = [
    ("C/C(=N\\Nc1nc2ccccc2s1)c1cccnn1", "TGI", "20 µM"),
    ("CCN(CC)C(=S)SS(=O)(=O)c1ccc(C)cc1", "TGI", "> 100 µM"),
    ("CC1=C(C)C(=O)O[C@@H]([C@](C)(O)[C@]2(O)CC[C@@]3(O)[C@@H]4C[C@H]5O[C@]56CC=CC(=O)[C@]6(C)[C@H]4CC[C@]23C)C1", "TGI", "1.57 µM"),
]

(Q) Request: TGI, test system UACC-62 melanoma, entry `Oc1c(Br)cc(CN(Cc2cc(Br)c(O)c(Br)c2)C2CCCCC2)cc1Br`
(A) > 100 µM

(Q) Request: TGI, test system UACC-62 melanoma, entry CCOC(=O)C1=C(C)NC(=O)N([N+](=O)[O-])C1c1ccccc1C(F)(F)F (stereo unspecified)
(A) > 100 µM

(Q) Request: TGI, test system UACC-62 melanoma, entry `CCn1c(-c2nonc2N)nc2ccc(F)cc21`
(A) > 25 µM

meta.source: PubChem BioAssay (NCI)
